# TARGET OR SYSTEM: human recombinant COX2 (hCOX2)
# METHOD SUMMARY: LCMS-based COX2 enzymatic inhibition assay (PGE2 quantification)
# Type: biochemical
# Parameters: COX2 2 minutes pge2/pge2d4 area ratio Avg; other: 2 minutes; readout pge2/pge2d4 area ratio; average; COX2 2 minutes pge2/pge2d4 area ratio Avg; LLE; average LLE; COX2 2 minutes pge2 area (counts) Avg; readout pge2 area (counts); other: 2 min; "ovine COX2 (oCOX2), human recombinant COX2 (hCOX2)"
# EXPERIMENTAL CONDITIONS: 2 minutes; readout pge2 area (counts); average LLE
RECORDED METRIC: COX2 2 minutes pge2 area (counts) Avg. LLE

Here is how some compounds turned out for COX2 2 minutes pge2 area (counts) Avg. LLE.
1) Cc1cc(CNc2cccc(-c3ccc(S(C)(=O)=O)cc3)n2)co1: 4.853
2) CS(=O)(=O)c1ccc(-c2cccc(OCc3cccs3)n2)nc1: 5.694
3) CS(=O)(=O)c1ccc(-c2cccc([C@@H](O)Cc3cccs3)n2)cc1: 3.131
4) COc1nc(NCc2cccs2)cc(-c2ccc(S(C)(=O)=O)cc2)n1: 3.204
5) CS(=O)(=O)c1ccc(-c2cncc(NCc3ccns3)n2)cc1: 5.576

(a) CS(=O)(=O)c1ccc(-c2cccc(OCc3ccsc3)n2)cc1
(b) C[C@H](Nc1cccc(-c2ccc(S(C)(=O)=O)cc2)n1)c1ccoc1 (single isomer, unassigned)
Enquiry: I would appreciate it if you could say which entry, a or b , has the lower COX2 2 minutes pge2 area (counts) Avg. LLE value. Reply briefly: the label of your chosen item.
Return: b
(b: 1.8776, a: 4.276)

(a) CS(=O)(=O)c1ccc(-c2cc(OCc3cccs3)cnn2)cc1
(b) CS(=O)(=O)c1ccc(-c2cncc(OCc3ccco3)n2)cc1
Enquiry: Lab note: record which item had the higher COX2 2 minutes pge2 area (counts) Avg. LLE, a or b . Pick one; state its label.
Return: b
(b: 4.928, a: 3.14)

###

# TARGET OR SYSTEM: human recombinant COX2 (hCOX2) (UniProt P35354)
# METHOD SUMMARY: LCMS-based COX2 enzymatic inhibition assay (PGE2 quantification)
# Format: biochemical
# Set-up: COX2 2 minutes pge2/pge2d4 area ratio Avg; other: 2 minutes; readout pge2/pge2d4 area ratio; average; COX2 2 minutes pge2/pge2d4 area ratio Avg; LLE; average LLE; COX2 2 minutes pge2 area (counts) Avg; readout pge2 area (counts); other: 2 min; "ovine COX2 (oCOX2), human recombinant COX2 (hCOX2)"
# EXPERIMENTAL CONDITIONS: 2 minutes; readout pge2/pge2d4 area ratio; average LLE
RECORDED METRIC: COX2 2 minutes pge2/pge2d4 area ratio Avg. LLE

Previously resolved entries follow.
1. COc1ncc(NCc2ccoc2)nc1-c1ccc(S(C)(=O)=O)cc1: 5.722
2. CCCCOc1cncc(-c2ccc(S(C)(=O)=O)cc2)n1: 3.204
3. C[C@@H](Nc1cncc(-c2ccc(S(C)(=O)=O)cc2)n1)c1cccs1: 3.7158
4. CC(C)COc1cncc(-c2ccc(S(C)(=O)=O)cc2)n1: 3.394
5. COc1ncc(NCc2ccno2)nc1-c1ccc(S(C)(=O)=O)cc1: 5.678
6. Cc1coc(C(=O)Nc2cccc(-c3ccc(S(C)(=O)=O)cc3)n2)c1: 2.554

(I) CS(=O)(=O)c1ccc(-c2cncc(/C=C/c3cccs3)n2)cc1
(II) CS(=O)(=O)c1ccc(-c2cccc(NCc3cncs3)n2)cc1
(III) C[C@H](Nc1cccc(-c2ccc(S(C)(=O)=O)cc2)n1)c1ccoc1 (single isomer, unassigned)
Enquiry: List from greatest to least COX2 2 minutes pge2/pge2d4 area ratio Avg. LLE. Response format: the labels, sorted as the prompt asks.
Return: II, I, III
